ASSAYED_TARGET: human CD3 (human, UniProt P07766 23-207; P04234 22-171; P09693 23-182)
Sequence (P07766 23-207, chain 1 of 3): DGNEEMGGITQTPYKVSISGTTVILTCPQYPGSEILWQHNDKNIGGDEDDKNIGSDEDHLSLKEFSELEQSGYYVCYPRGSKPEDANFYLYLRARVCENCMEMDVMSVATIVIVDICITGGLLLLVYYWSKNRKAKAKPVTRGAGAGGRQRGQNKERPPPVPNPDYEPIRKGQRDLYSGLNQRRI
Sequence (P04234 22-171, chain 2 of 3): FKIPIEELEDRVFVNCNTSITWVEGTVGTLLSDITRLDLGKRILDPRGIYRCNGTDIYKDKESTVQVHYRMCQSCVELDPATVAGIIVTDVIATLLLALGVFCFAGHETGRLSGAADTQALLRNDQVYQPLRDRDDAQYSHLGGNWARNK
Sequence (P09693 23-182, chain 3 of 3): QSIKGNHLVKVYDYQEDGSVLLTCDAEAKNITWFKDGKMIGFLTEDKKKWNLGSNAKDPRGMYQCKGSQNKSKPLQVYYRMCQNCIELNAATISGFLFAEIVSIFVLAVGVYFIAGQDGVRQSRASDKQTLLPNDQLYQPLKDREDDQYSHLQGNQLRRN
PROCEDURE_TEXT: cell-based or functional assay
Kind request: treat 7 nM as inclusive, so CD8 EC50 (nM); CD69/CD25 on human T cells, plate-coated antibody at 7 nM or higher is MET, anything lower is NOT MET.

mAb 112 (antibody, V domains shown) VH: EVQLVESGGGLVKTGGSHRLSCVASGFSFKKAWMNWVRQAPGKGLEWVGRIKRNSDGGTTDYAAPVKGRFILSRDDSKNTLYLQMNSLKTEDTAVYYCTTLDSSSWYVGYYYMDVWGKGTTVTVSS VL: DIQMTQSPSSVSASVGDRVTITCRASQDINNWLAWYQQKPGKAPKILIYTASNLQSGVPSRFSGSGSGTDFTLTISSLQPEDFATYFCQQAHSLPITFGQGTRLEIK | NOT MET
mAb 114 (antibody, V domains shown) VH: EVQLVESGGGLVKTGGSLRLSCVASGFSFKKAWMNWVRQAPGKGLEWVGRIKRNTDGGPADYAAPVKGRFTLSRDDSKKTLYLQMNSLKTEDTAVYYCTTLDSSSWYVGYYYMDVWGKGTTVTVSS VL: DIQMTQSPSSVSASVGDRVIITCRASQDINNWLAWYLQRPGKAPKLLIYAASSLQSGVPSRFSGSGSGTDFTLTIGSLQPEDFATYYCQQAHSLPITFGQGTRLEIQ | MET
mAb 179 (antibody, V domains shown) VH: EVQLVESGGGLVQPGRSLRLSCAASGFTFDDYTMHWVRQTPGKGLEWVSDISWNSGSIGYADSVKGRFTISRDNAKNTLYLQMNSLRAEDTALYYCVKDSSGYGHYLYYYMDVWGKGTTVTVSS VL: DIQMTQSPSSLSASVGDRVTITCRASQSIRNYLNWYQQSPGRAPKLLIFSASSLQSGVPSRFSGSGSGTDFTLTISSLQPEDFVTYYCQQRYSTPITFGQGTRLEIK | MET

Is CD8 EC50 (nM); CD69/CD25 on human T cells, plate-coated antibody at least 7 nM? Consider mAb 156 (antibody, V domains shown) VH: EVQLVESGGGLVKTGGSLRLSCVASGFSFKKAWMNWVRQAPGKGLEWVGRIKRNTDGGTADYAAPVKGRFTLSRDDSKKTLFLQMNSLKTEDTAVYYCTTLDSSSYYVGYYYMDVWGKGTTVTVSS VL: DIQMTQSPSSVSASVGDRVIITCRASQDINNWLAWYQQKAGKAPKLLIYTASSLQSGVPSRFSGSGSGTDFTLTIGSLQPEDFATYYCQQAHSLPITFGQGTRLEIK
NOT MET

Is CD8 EC50 (nM); CD69/CD25 on human T cells, plate-coated antibody at least 7 nM? Consider mAb 117 (antibody, V domains shown) VH: EVQLVESGGGLVKTGGSLRLSCVASGFSFKKAWMNWVRQAPGKGLEWVGRIKRNTDGGTTDYAAPVKGRFTLSRDDSKNTLYLQMNSLKTEDTAVYYCTTLDSSSLYVGYYYMDVWGKGTTVTVSS VL: DIQMTQSPSSVSASVGDRVTITCRASQDINNWLAWYQQKPGKAPKLLIYTASSLQSGVPSRFSGSGSGTDFTLTISSLQPEDFATYYCQQAHSLPITFGQGTRLEIK
NOT MET
